measured.on: T1, human CD277 (human, UniProt O00481 30-254, limits assumed)
T1 construct: The SPR method text speaks of 'purified recombinant his tagged human CD137', apparently an error for CD277; also called BTN3A1; human CD277 polypeptides
protocol.description: SPRi (Carterra MX96), antibody printed on chip, his-tagged antigen injected, 1:1 fit
koff listing for selected binders.
Give a bare numeral; the unit s⁻¹ is implied.

As a guide, the following entries are already answered.
- binder: "anti-CD277 antibody mAb2 (antibody, human IgG1, kappa, N297A, V domains shown) VH: QVQLVQSGAEVKKPGASVKVSCKASGYTFSNYYIHWVRQAPGQGLEWMGWINANSGGTKYAQKFQGRVTMTRDTSISTAYMELSRLRSDDTAVYYCARRHSDMIGYYYGMDVWGQGTTVTVSS VL: DIQMTQSPSSLSASVGDRVTITCRASQSIDRYLNWYQQKPGKAPKLLIYAASRLQSGVPSRFSGSGSGTDFTLTISSLQPEDFATYYCQQANSFPPTFGQGTRLEIKR"
  unit.abbrev: "s⁻¹"
  measured.value: "4.89e-05"
- binder: "anti-CD277 antibody mAb11 (antibody, human IgG1, kappa, N297A, V domains shown) VH: QVQLVQSGAEVKKPGASVKVSCKASGYTFSNYYIHWVRQAPGQGLEWMGWINANSGGTKYAQKFQGRVTMTRDTSISTAYMELSRLRSDDTAVYYCARRHSDMIGYYYGMDVWGQGTTVTVSS VL: DIQMTQSPSSLSASVGDRVTITCRASQSISSYLNWYQQKPGKAPKLLIYAASSLQSGVPSRFSGSGSGTDFTLTISSLQPEDFATYYCQQANTFPPTFGQGTRLEIKR"
  unit.abbrev: "s⁻¹"
  measured.value: "9.36e-05"
- binder: "anti-CD277 antibody mAb10 (antibody, human IgG1, kappa, N297A, V domains shown) VH: QVQLVQSGAEVKKPGASVKVSCKASGYTFTNYYMHWVRQAPGQGLEWMGWINVNSGVTKYAQKFQGRVTMTRDTSISTAYMELSRLRSDDTAVYYCARRHSDMIGYYYGMDVWGQGTTVTVSS VL: DIQMTQSPSSLSASVGDRVTITCRASQSISSYLNWYQQKPGKAPKLLIYAASSLQSGVPSRFSGSGSGTDFTLTISSLQPEDFATYYCQQANTFPPTFGQGTRLEIKR"
  unit.abbrev: "s⁻¹"
  measured.value: "8.03e-05"

// next entry
According to the records, this binder anti-CD277 antibody mAb9 (antibody, V domains shown) VH: QVQLVQSGAEVKKPGASVKVSCKASGYTFNGYYIHWVRQAPGQGLEWMGWINSNSGGTKYAQKFQGRVTMTRDTSISTAYMELSRLRSDDTAVYYCARRHSDMIGYYYGMDVWGQGTTVTVSS VL: DIQLTQSPSSLSASVGDRVTITCRASQSISSYLNWYQQKPGKVPKLLIYAASTLQSGVPSRFSGSGSGTDFTLTISSLQPEDFATYSCQQTNSFPPTFGQGTKVEIKR displays koff of 9.71e-05
